Target: T1, human galectin-10-His (recombinant human galectin-10 with TEV-cleavable N-terminal His-tag) (human)
T1 construct: SEC-MALLS: dimer in solution; also called Gal10-His; humanGal10-His
T1 chain: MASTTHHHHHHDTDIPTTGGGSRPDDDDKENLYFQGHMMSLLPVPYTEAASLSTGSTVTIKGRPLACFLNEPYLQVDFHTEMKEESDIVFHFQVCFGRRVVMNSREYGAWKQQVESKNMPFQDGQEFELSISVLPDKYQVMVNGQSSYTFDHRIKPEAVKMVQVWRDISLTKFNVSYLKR
Assay: ELISA, scFv-hFc on coated galectin-10-His (0.2 ug/mL)
TEST_READOUT: Bmax (OD values) (OD)

binder="4H10 scFv-human Fc (Fc fusion, about 100 kDa on SDS-PAGE; also called 4H10 ScFv-hFc; not shown: CH2-CH3 constant domains of human IgG1 (vector pUPEX50)) scFv: QVQLVESGGGLVQPGGSLRLSCAASGFTFDDYAMSWVRQAPGKGLEWVSAISWNGGSTYYAESMKGRFTISRDNAKNTLYLQMNSLKSEDAAVYYCAKDLSASGSYYHTFGSWGQGTQVTVSSGGGGSGGGGSGGGGSQAGLTQPPSVAGTLGKTVTISCAGTSSDVGYGDYVSWYQHIPGTAPKLLIYKVKTRASGIPDRFSGSKSGNTASLTISGLQSGDESDYYCASYKNGGTAVFGGGTHLTVL" value_units=OD observed=1.3
binder="4B10 scFv-human Fc (Fc fusion, about 100 kDa on SDS-PAGE; also called 4B10 ScFv-hFc; not shown: CH2-CH3 constant domains of human IgG1 (vector pUPEX50)) scFv: QLQLVESGGGLVQPGGSLRLSCAASGFTFSNYWMYWVRQAPGKGLEWVSAIDVGGGTTDYAGSVKGRFTISRDNTKSTVYLQMNTLKPEDTALYYCLRGGSYYGGMDYWGKGTLVTVSSGGGGSGGGGSGGGGSQSALTQPSAVSVSLGQTARITCQGAKLGRYYGIWYQQKPGQAPVQVIYGDSNRPSGIPERFSGSSSGGTATLTISGAQAEDEADYYCQSYESSTSPVFGGGTHLTVL" value_units=OD observed=1.28
